Source: ChEMBL document CHEMBL1144173

assayed-system: B1 bradykinin receptor (Macaca fascicularis)
assay-method-text: Antagonist activity at Cynomolgus monkey bradykinin B1 receptor expressed in CHO cells assessed as calcium transient by FLIPR assay
Format: functional, cell-based
I'd appreciate it if you could supply IC50 values for the items below.
One number for each entry, in nM.

These recorded examples may help you get a feel for the data.
CN(Cc1ccc(-c2nccs2)cc1)C(=O)CNC(=O)c1nc2ccccc2n1Cc1ccccc1
1170
CCN(CC(=O)N(C)Cc1ccc(C2=NCCN2)cc1)C(=O)c1nc2ccccc2n1Cc1ccccc1
6

I have 5 molecules here; please give me IC50 for each one.
1. CN1CCC2(CCN(C(=O)CCNC(=O)c3nc4ccccc4n3Cc3ccccc3)CC2)C1
2. O=C([C@H]1CCCN1C(=O)c1nc2ccccc2n1Cc1ccccc1)N1CCN(c2ccncc2)CC1
3. O=C(NCC(=O)N1CCN(c2ccncc2)CC1)c1nc2ccccc2n1Cc1ccccc1
4. O=C(c1nc2ccccc2n1Cc1ccccc1)N1CCC(C(=O)N2CCN(c3ccncc3)CC2)CC1
5. CC(C)N(CC(=O)N1CCN(C2CCN(C)CC2)CC1)C(=O)c1nc2ccccc2n1Cc1ccccc1

A.
1: 2910; 2: 4070; 3: 310; 4: 2310; 5: 465

###

assayed-system: B1 bradykinin receptor (Rattus norvegicus)
Sequence (P97583 whole entry): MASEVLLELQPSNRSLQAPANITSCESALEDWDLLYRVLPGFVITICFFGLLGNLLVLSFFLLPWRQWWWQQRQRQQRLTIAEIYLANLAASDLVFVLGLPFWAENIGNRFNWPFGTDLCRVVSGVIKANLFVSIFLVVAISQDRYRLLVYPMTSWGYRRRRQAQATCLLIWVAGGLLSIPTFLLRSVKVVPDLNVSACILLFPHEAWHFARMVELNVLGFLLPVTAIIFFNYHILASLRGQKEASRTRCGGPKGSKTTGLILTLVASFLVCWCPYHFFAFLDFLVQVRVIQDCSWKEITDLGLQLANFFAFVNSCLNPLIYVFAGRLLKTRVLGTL
assay-method-text: Antagonist activity at rat bradykinin B1 receptor
I'd appreciate it if you could supply pIC50 values for the items below.
Give bare numbers, as −log10 of the molar value.

These recorded examples may help you get a feel for the data.
CN(Cc1ccc(C2=NCCN2)cc1)C(=O)CNC(=O)c1nc2ccccc2n1Cc1ccccc1
6.81
CCCN(CC(=O)N1CCN(C2CCN(C)CC2)CC1)C(=O)c1nc2ccccc2n1Cc1ccccc1
7.64

I have 5 compounds here; please give me pIC50 for each one.
1. CCN(CC(=O)N1CCN(C2CCN(C)CC2)CC1)C(=O)c1nc2ccccc2n1Cc1ccccc1
2. CCCN(CC(=O)N1CCN(c2ccncc2)CC1)C(=O)c1nc2ccccc2n1Cc1ccccc1
3. CCN(CC(=O)N(C)Cc1ccc(C2=NCCN2)cc1)C(=O)c1nc2ccccc2n1Cc1ccccc1
4. O=C(CCNC(=O)c1nc2ccccc2n1Cc1ccccc1)Nc1ccc(C2=NCCN2)nc1
5. O=C(NCC(=O)N1CCN(c2ccncc2)CC1)c1nc2ccccc2n1Cc1ccccc1

A.
7.82
6.40
6.46
9.10
6.38

###

assayed-system: B1 bradykinin receptor (Macaca fascicularis, UniProt Q3BCU0)
Sequence (Q3BCU0 whole entry): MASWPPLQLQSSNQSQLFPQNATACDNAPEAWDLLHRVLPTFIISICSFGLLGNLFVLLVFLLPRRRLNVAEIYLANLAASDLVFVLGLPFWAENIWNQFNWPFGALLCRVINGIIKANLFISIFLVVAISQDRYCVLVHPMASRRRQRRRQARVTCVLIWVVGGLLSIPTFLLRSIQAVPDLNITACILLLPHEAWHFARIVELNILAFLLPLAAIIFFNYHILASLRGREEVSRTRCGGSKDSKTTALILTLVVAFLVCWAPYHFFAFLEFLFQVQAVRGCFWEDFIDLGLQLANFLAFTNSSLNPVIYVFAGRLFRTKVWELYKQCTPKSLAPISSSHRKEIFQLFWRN
assay-method-text: Antagonist activity at Cynomolgus monkey bradykinin B1 receptor expressed in CHO cells assessed as calcium transient by FLIPR assay
Assay type: functional, cell-based
pIC50: −log10 of the molar value.
I'd appreciate it if you could supply pIC50 values for the items below.

These recorded examples may help you get a feel for the data.
CN(C)C(=O)c1ccc(CN(C)C(=O)CNC(=O)c2nc3ccccc3n2Cc2ccccc2)cc1
< 5.30
CCN(CC(=O)N1CCN(c2ccncc2)CC1)Cc1nc2ccccc2n1Cc1ccccc1
< 5.30

Let's switch to this compound now.
Q. Give its pIC50 value. Item: "CC(C)N(CC(=O)N1CCN(c2ccncc2)CC1)C(=O)c1nc2ccccc2n1Cc1ccccc1"
A. < 5.30
